Where do these numbers come from? They come from patent US20220185900A1.

# TESTED_ON: T1, Macaca fascicularis (mf) RET.mmh (Macaca fascicularis)
# T1 construct: also called monkey RET
# T1 chain: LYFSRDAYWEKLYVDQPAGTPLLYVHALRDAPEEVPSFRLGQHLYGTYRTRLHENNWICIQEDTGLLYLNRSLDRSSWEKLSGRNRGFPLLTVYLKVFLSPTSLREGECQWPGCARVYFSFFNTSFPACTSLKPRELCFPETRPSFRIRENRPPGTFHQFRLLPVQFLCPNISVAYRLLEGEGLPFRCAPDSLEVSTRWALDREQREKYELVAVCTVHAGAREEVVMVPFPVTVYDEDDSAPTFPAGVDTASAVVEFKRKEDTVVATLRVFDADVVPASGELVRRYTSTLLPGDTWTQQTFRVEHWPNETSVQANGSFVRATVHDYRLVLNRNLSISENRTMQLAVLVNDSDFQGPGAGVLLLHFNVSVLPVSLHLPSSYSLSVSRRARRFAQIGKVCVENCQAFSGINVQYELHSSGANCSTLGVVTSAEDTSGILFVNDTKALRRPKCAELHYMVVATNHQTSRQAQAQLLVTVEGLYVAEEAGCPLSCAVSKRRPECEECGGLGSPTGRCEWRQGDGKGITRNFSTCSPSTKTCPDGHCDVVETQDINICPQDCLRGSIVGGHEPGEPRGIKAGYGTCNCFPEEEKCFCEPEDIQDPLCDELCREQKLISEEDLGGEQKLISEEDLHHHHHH
# ASSAY_REMARKS: SPR Biacore T200, mAb capture, 37 C
ATTRIBUTE_MEASURED: t½ (min)
Write the answer as a number in min, unit excluded.

Some solved entries appear below for comparison.
BINDER	t½ / min
H4H8071P (antibody, human IgG4, V domains shown, human IgG4 Fc (H4H prefix)) VH: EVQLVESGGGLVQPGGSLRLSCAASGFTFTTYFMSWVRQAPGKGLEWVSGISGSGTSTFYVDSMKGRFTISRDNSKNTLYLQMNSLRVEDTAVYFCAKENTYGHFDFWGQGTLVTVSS VL: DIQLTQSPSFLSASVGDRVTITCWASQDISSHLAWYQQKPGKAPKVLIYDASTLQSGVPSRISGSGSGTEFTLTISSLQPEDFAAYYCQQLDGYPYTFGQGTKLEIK	10
H4H8083P (antibody, human IgG4, V domains shown, human IgG4 Fc (H4H prefix)) VH: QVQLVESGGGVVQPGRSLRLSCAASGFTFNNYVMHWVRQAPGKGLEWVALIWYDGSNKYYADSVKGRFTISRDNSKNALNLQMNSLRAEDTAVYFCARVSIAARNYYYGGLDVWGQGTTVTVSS VL: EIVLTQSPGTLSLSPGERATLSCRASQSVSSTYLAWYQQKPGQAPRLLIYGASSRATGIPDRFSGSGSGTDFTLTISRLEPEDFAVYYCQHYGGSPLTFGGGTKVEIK	3

Kindly indicate its recorded t½. Item: H4H8045P (antibody, human IgG4, V domains shown, human IgG4 Fc (H4H prefix)) VH: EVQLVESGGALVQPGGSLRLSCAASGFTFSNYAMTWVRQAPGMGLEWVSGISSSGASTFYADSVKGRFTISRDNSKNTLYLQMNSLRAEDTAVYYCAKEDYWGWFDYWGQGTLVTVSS VL: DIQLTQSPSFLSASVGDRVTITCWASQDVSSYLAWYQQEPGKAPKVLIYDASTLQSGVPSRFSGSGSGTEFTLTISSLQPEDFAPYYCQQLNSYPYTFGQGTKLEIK 1
